System: T-cell
Test: IL-2 secretion from T-cells co-stimulated with anti-CD3 and anti-CD28 antibody (Biological Example 2)
Type: cell-based, human
Settings: Homo sapiens, T-cell, fold change over baseline; 0.3 μM Cbl-b inhibitor; primary human total T-cells; read-out: IL-2 secretion Anti-CD3/Anti-CD28 stimulation
The entries below are paired with their reported fold induction at 0.3 µM.

Query: Need fold induction at 0.3 µM of C[C@H](Sc1nncn1C)c1cccc(NC(=O)c2cc(C(C)(C)O)c(Cl)cn2)c1 , thanks.
Reply: 1.01 to 2.5

Query: Need fold induction at 0.3 µM of C[C@H](Cc1nncn1C)c1cccc(NC(=O)c2n[nH]c3c2CCC3)c1 , thanks.
Reply: 1.01 to 2.5

Query: Need fold induction at 0.3 µM of C[C@H](Cc1nncn1C)c1cc(N[C@H]2CCOC2)nc(N2Cc3c(cccc3C(F)(F)F)C2=O)c1 (stereo in doubt) , thanks.
Reply: 1.01 to 2.5

Query: Need fold induction at 0.3 µM of COc1cc(C(=O)Nc2cccc([C@H](C)Cc3nncn3C)c2)nc(C(F)(F)F)c1 , thanks.
Reply: 1.01 to 2.5

Query: Need fold induction at 0.3 µM of COc1cccc(C(=O)Nc2cccc([C@H](C)Sc3nncn3C)c2)n1 , thanks.
Reply: 1.01 to 2.5

Query: Need fold induction at 0.3 µM of C[C@H](Cc1nncn1C)c1cccc(NC(=O)c2cnn3cccnc23)c1 , thanks.
Reply: 1.01 to 2.5

Query: Need fold induction at 0.3 µM of C[C@H](Sc1nncn1C)c1cccc(NC(=O)c2cncc(C(F)(F)F)n2)c1 , thanks.
Reply: < 1

Query: Need fold induction at 0.3 µM of Cc1cc(C(=O)Nc2cccc(C3(C(F)(F)c4nncn4C)CC3)c2)nc(C2CC2)n1 , thanks.
Reply: 1.01 to 2.5

Query: Need fold induction at 0.3 µM of C[C@@H](Cc1nncn1C)c1cccc(NC(=O)c2cc(C(=O)N3CC[C@H](O)C3)cc(C3CC3)n2)c1 , thanks.
Reply: < 1

Query: Need fold induction at 0.3 µM of Cn1cnnc1[C@H]1CC[C@H]1c1cccc(N2Cc3c(cccc3C(F)(F)F)C2=O)c1 (racemic) , thanks.
Reply: < 1

Query: Need fold induction at 0.3 µM of Cc1cc(C(=O)Nc2cccc(C3(Cc4nncn4C)COC3)c2)nc(C2CCC2)n1 , thanks.
Reply: 1.01 to 2.5

Query: Need fold induction at 0.3 µM of Cc1conc1C[C@@H](C)c1cccc(NC(=O)c2ccnc(C(F)(F)F)n2)c1 [Compound 213a] , thanks.
Reply: 1.01 to 2.5

Query: Need fold induction at 0.3 µM of C[C@H](Cc1nncn1C)c1cccc(N2Cc3c(cc(C(=O)N4CC(O)C4)cc3C3CC3)C2=O)c1 , thanks.
Reply: 1.01 to 2.5

Query: Need fold induction at 0.3 µM of Cc1cc(C(=O)Nc2cccc(C3(Cc4nncn4C)COC3)c2)nc(C2CC2)n1 , thanks.
Reply: 5 to 7.5

Query: Need fold induction at 0.3 µM of Cc1cccc2nc(C(=O)Nc3cccc([C@H](C)Sc4nncn4C)c3)ccc12 , thanks.
Reply: 2.51 to 5

Query: Need fold induction at 0.3 µM of C[C@H](Sc1nncn1C)c1cc(F)cc(N2Cc3c(cccc3C(F)(F)F)C2=O)c1 [Compound 168a] , thanks.
Reply: < 1
